melting point values by entry

The examples below pair each entry with its known result.
- molecule: "C[C@]1(COC(=O)N2CCN(N=Cc3ccc(C(F)(F)F)cc3)CC2)Cn2cc([N+](=O)[O-])nc2O1"
  observed_measurement: "176 to 178 °C"
- molecule: "COc1ccc(C=CC(=O)O)cc1-c1cc2c(cc1OCCN1CCCCC1)C(C)(C)CCC2(C)C"
  observed_measurement: "251 to 253 °C"
- molecule: "Cc1csc(C)c1C(=O)O"
  observed_measurement: "164 to 165 °C"
- molecule: "COc1ncc(-c2ccccc2)c(C(=O)N(C)Cc2cc(C(F)(F)F)cc(C(F)(F)F)c2)n1"
  observed_measurement: "97.5 to 98.5 °C"
- molecule: "NC1=NC2(CN(C(=O)OCc3ccccc3)C2)Nc2cccc(F)c21"
  observed_measurement: "157 to 159 °C"
- molecule: "CCc1c2c(nc3cc(F)c(F)cc13)-c1cc3c(c(=O)n1C2)COC(=O)CC3(O)CC (stereo unspecified)"
  observed_measurement: "> 275 °C"
- molecule: "COc1cc(N(C)C)ccc1C=Nc1cc(Cl)c(N=CN(C)C)c(Cl)c1"
  observed_measurement: "137 to 139 °C"
- molecule: "Nc1nc(CCc2ccccc2)nc2oc(-c3ccco3)nc12"
  observed_measurement: "206 to 208 °C"
- molecule: "CC(C)(O)c1cccc(-c2ccc3nc(-c4ccc(Cl)cc4)cn3c2)c1"
  observed_measurement: "166 to 168 °C"
- molecule: "CCS(=O)(=O)Nc1cc(-c2ncnc(OC)c2C#N)c(F)cc1C#N"
  observed_measurement: "187 to 189 °C"

Assign melting point to the following record: OC(CCCl)COc1ccccc1 (stereo unspecified)
52 to 54 °C

Assign melting point to the following record: COC(=O)c1ccc2c(c1)S(=O)(=O)c1ccccc1N=C2Cl
254 to 256 °C

Assign melting point to the following record: Cc1ccc(-c2ccnc3c(C(=O)c4cccs4)cnn23)cc1NC(=O)c1ccccc1
216 to 218 °C

Assign melting point to the following record: COc1ccc2c(c1)CC(=O)CO2
67 to 72 °C

Assign melting point to the following record: OC(CCc1ccccc1)c1cnc2sc3cc(F)ccc3n12 (stereo unspecified)
195 to 196 °C

---

melting point values by entry

The examples below pair each entry with its known result.
- compound: "COc1cc(C)c(C=CC(C)=CC=O)cc1C"
  melting point: "90 to 92 °C"
- compound: "CC(C)c1c(O)ccc2cnc(Nc3ccccc3)nc12"
  melting point: "103 to 104 °C"
- compound: "CSc1cc(C)nc(SC)c1NC(=O)CCCCSc1nc2c(C)c(Cl)cc(C(C)C)c2o1"
  melting point: "155 to 156 °C"

Assign melting point to the following record: Cc1cc(Oc2ncc(C(F)(F)F)cc2Cl)n[nH]1
93 to 95 °C

Assign melting point to the following record: Cc1ccc2c3c(ccc2n1)OCC(CN1C2CCC1CC(O)(c1ccccc1)C2)O3 (stereo unspecified)
162 to 165 °C

Assign melting point to the following record: CCCC(=O)c1cnc2cc(CO)ccc2c1Nc1ccccc1C
176 to 178 °C

---

measured_quantity: melting point

The examples below pair each entry with its known result.
- molecule: "COc1c(-c2ccc(O)c(O)c2)oc2cc(O)c(CC=C(C)CCC=C(C)C)c(O)c2c1=O"
  melting point: "98 to 99 °C"
- molecule: "O=C(C(=O)c1cccc(Br)c1)c1ccncc1"
  melting point: "88 to 90 °C"
- molecule: "COCCOC1c2ccn3c(Br)c(C)nc3c2N(C(C)=O)C(c2ccccc2)C1OC(=O)C(C)(C)C (centres undefined)"
  melting point: "166 to 167 °C"
- molecule: "CC(C)(C)OC(=O)c1nn(-c2ccc(F)cc2F)c2c1C1CCC2C1 (centres undefined)"
  melting point: "97 to 99 °C"
- molecule: "CCCCCC(CNC(=O)Nc1cc(C(N)=O)ccc1C(C)(C)C)c1ccc(OC)cc1OC (centres undefined)"
  melting point: "223 to 224 °C"
- molecule: "Cc1cc(C)nc(NC(=O)NS(=O)(=O)c2ccccc2C2(O)CCC2)n1"
  melting point: "148 to 150 °C"

Assign melting point to the following record: COC(=O)c1cccc2cc(C)n(Cc3ccc(-c4ccccc4-c4nnn[nH]4)cc3)c12
180 to 182 °C

Assign melting point to the following record: Cc1ccccc1SCc1c(C(C)C)nc(C(C)C)c(CO)c1-c1ccc(F)cc1
140 to 141 °C

Assign melting point to the following record: CNC(=O)ON=C1N=C(c2ccc(Cl)cc2)C(C)(C)S1
147 to 149 °C

Assign melting point to the following record: CCOC(=O)c1nnc2ccc(NC(=O)OCC(Cl)(Cl)Cl)cc2c1O
251 to 253 °C

Assign melting point to the following record: CCOC(=O)C1=C(O)C(=O)NCC1
142 to 148 °C

Assign melting point to the following record: COC(=O)[C@@H]1C(=O)Nc2ccccc2C[C@H]1c1ccc2c(c1)OCO2 (racemic)
211 to 214 °C

Assign melting point to the following record: CCCc1nc2cnc3ccc([N+](=O)[O-])cc3c2s1
228 to 230 °C

Assign melting point to the following record: S=C(Cc1cccnc1)N1CCOCC1
158 to 160 °C

Values compiled from a melting point compilation (Tetko et al.; mined from patent text by program, amines drawn as free bases though some values may be those of a salt).
